Here the recorded % cleavage MMP-9 t = 60 min is given for each entry.
- target: MMP-9 (Homo sapiens)
- Construct: purchased SIGMA PF024
- Sequence (P14780 94-707): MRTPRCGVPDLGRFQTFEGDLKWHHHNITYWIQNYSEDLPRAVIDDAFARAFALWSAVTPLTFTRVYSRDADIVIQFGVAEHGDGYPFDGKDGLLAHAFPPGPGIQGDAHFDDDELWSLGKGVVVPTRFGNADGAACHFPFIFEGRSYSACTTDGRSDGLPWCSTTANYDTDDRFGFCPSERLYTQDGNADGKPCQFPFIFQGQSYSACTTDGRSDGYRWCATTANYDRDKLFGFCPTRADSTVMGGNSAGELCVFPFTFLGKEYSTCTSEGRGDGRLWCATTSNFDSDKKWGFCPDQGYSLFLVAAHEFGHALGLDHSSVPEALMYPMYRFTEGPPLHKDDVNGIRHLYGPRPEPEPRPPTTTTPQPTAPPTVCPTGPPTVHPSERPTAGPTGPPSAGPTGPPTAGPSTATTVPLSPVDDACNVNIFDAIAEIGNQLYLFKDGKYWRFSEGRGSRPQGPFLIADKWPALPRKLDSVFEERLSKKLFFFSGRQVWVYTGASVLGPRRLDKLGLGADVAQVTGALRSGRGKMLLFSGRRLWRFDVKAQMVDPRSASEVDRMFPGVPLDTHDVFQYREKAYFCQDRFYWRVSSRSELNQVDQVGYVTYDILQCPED
- assayComment: FRET peptide cleavage efficiency with MMP-9 (standard pH 7.5; also pH 6.5)
- Format: biochemical
- conditionParameters: t = 60 min; standard conditions (Table 8)
Square brackets hold non-standard residues; d marks the D form. Ends that are not written are not given here. Tyr(3-NO2) = N[C@@H](Cc1ccc(O)c([N+](=O)[O-])c1)C(=O)O; Nle = CCCC[C@H](N)C(=O)O; 2Abz = Nc1ccccc1C(=O)O
All answers are understood in %, so give the number only.

The substance RGRRGP ([2Abz]RGRRGP[Tyr(3-NO2)]-NH2) [LNK048] on MMP-9 (Homo sapiens): % cleavage MMP-9 t = 60 min was 0

Param item: RGRRVANLVG ([2Abz]RGRRVANLVG[Tyr(3-NO2)]-NH2) [LNK033] ; param system: MMP-9 (Homo sapiens); output % cleavage MMP-9 t = 60 min: 100

Entry SGRVAPY-Nle-LQG ([2Abz]SGRVAPY[Nle]LQG[Tyr(3-NO2)]-NH2) [LNK043] : % cleavage MMP-9 t = 60 min on MMP-9 (Homo sapiens) = 93

MMP-9 (Homo sapiens) data for RGRKPQPLVD ([2Abz]RGRKPQPLVD[Tyr(3-NO2)]-NH2) [LNK039] ; its % cleavage MMP-9 t = 60 min: 74

Assay MMP-9 (Homo sapiens), sample RGRKSPYMLQG ([2Abz]RGRKSPYMLQG[Tyr(3-NO2)]-NH2) [LNK037] , % cleavage MMP-9 t = 60 min read: 100

// assay MMP-9 (Homo sapiens), entry SGRVYMLQG ([2Abz]SGRVYMLQG[Tyr(3-NO2)]-NH2) [LNK044] , % cleavage MMP-9 t = 60 min value = 1

Query SGRVAPQPLVD (not fully specified (N-terminus, C-terminus)) [LNK046] on MMP-9 (Homo sapiens); % cleavage MMP-9 t = 60 min returned: 74

Observed % cleavage MMP-9 t = 60 min on MMP-9 (Homo sapiens), entry RGRKSPY-Nle-LQG ([2Abz]RGRKSPY[Nle]LQG[Tyr(3-NO2)]-NH2) [LNK038] , equals 71

Record RGRKSPANLVG ([2Abz]RGRKSPANLVG[Tyr(3-NO2)]-NH2) [LNK034] / MMP-9 (Homo sapiens), % cleavage MMP-9 t = 60 min recorded as 100

# RGRKVANLVG ([2Abz]RGRKVANLVG[Tyr(3-NO2)]-NH2) [LNK031] with MMP-9 (Homo sapiens): % cleavage MMP-9 t = 60 min is 100

Summary: RGRKPY-Nle-LQG ([2Abz]RGRKPY[Nle]LQG[Tyr(3-NO2)]-NH2) [LNK036] , MMP-9 (Homo sapiens), % cleavage MMP-9 t = 60 min = 87

Item: RGRKSQPLVD ([2Abz]RGRKSQPLVD[Tyr(3-NO2)]-NH2) [LNK041] | System: MMP-9 (Homo sapiens) | % cleavage MMP-9 t = 60 min: 1

Measured % cleavage MMP-9 t = 60 min (MMP-9 (Homo sapiens)), entry SGRVAPYMLQG ([2Abz]SGRVAPYMLQG[Tyr(3-NO2)]-NH2) [LNK042] : 100

Result for SGRVQPLVD (not fully specified (N-terminus, C-terminus)) [LNK047] , tested on MMP-9 (Homo sapiens), % cleavage MMP-9 t = 60 min: 2

Observed % cleavage MMP-9 t = 60 min, MMP-9 (Homo sapiens), RGRKSPQPLVD ([2Abz]RGRKSPQPLVD[Tyr(3-NO2)]-NH2) [LNK040] : 69

Hey, MMP-9 (Homo sapiens) data for RGRKPYMLQG ([2Abz]RGRKPYMLQG[Tyr(3-NO2)]-NH2) [LNK035] : % cleavage MMP-9 t = 60 min came out at 100

Field % cleavage MMP-9 t = 60 min (MMP-9 (Homo sapiens)), entry RQRKVANLVG ([2Abz]RQRKVANLVG[Tyr(3-NO2)]-NH2) [LNK032] : 100
